Biological target: human orexin type 2 receptor (hOX2R) (Homo sapiens (Human))
Sequence (O43614 whole entry): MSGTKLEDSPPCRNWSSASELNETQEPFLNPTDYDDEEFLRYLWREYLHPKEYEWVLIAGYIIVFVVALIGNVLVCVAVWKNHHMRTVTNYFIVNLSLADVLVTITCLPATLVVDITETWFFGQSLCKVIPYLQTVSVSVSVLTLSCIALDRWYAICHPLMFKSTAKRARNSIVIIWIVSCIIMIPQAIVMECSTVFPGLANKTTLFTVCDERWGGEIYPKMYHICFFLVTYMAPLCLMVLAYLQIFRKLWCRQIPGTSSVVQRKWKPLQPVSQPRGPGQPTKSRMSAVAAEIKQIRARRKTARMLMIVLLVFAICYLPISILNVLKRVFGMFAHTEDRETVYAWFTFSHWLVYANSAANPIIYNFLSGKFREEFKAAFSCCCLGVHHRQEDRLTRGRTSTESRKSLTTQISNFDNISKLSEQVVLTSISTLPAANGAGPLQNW
Assay: Measurement of orexin type 2 receptor agonist activity (Experimental Example 2-1, FLIPR TETRA, intracellular Ca2+)
Assay type: cell-based
Conditions: CHO dhfr- cells expressing hOX2R, FLIPR TETRA, Fluo-4AM
From the text: To obtain a cell clone stably expressing human orexin type 2 receptor, human orexin type 2 receptor cDNA was inserted into pcDNA3.1(+) plasmid vector (Invitrogen), and a plasmid DNA for expression of human orexin type 2 receptor (pcDNA3.1(+)/hOX2R) was cloned. The plasmid DNA was introduced into CHO-dhfr cell by an electroporation method, and human orexin type 2 receptor expressing clone cells were obtained by limiting dilution method by using G418 drug resistance as a selection marker. […]
We label by threshold. Values of EC50 strictly beneath 0.09 µM are class 1. Values of 0.09 µM and up are class 0.

hey, is EC50 for Cc1ccccc1[C@H]1CC[C@@H](OC[C@@H]2NCCC[C@@H]2NS(C)(=O)=O)CC1 lower than 0.09 µM or not?
class 0

Report whether reported EC50 is lower than 0.09 µM (strictly) for CCS(=O)(=O)N[C@H]1CCCN(C(=O)C2CC2)[C@H]1CO[C@H]1CC[C@@H](c2ccccc2)CC1 (relative stereo)
class 1

Lab log: compare recorded EC50 with 0.09 µM; is it strictly lower for COc1ccccc1[C@H]1CC[C@@H](OC[C@H]2[C@@H](NS(C)(=O)=O)CCCN2C(C)=O)CC1 ?
class 1

Is EC50 of CCNC(=O)N1CCC[C@H](NS(C)(=O)=O)[C@@H]1CO[C@H]1CC[C@@H](c2ccc(F)cc2F)CC1 (relative stereo) strictly below 0.09 µM?
class 1

Is 0.09 µM strictly greater than the molecule's reported EC50? molecule: CS(=O)(=O)N[C@H]1CCCN(C(=O)C2CC2)[C@H]1CO[C@H]1CC[C@@H](c2cc(F)cc(F)c2F)CC1
class 1

Determine whether this molecule shows EC50 lower than 0.09 µM (ties excluded): CS(=O)(=O)N[C@H]1CCCN(C(=O)[C@@H]2C[C@@H]2F)[C@H]1COC1CCN(c2ccccc2F)CC1
class 0

====

Molecular target: UniProtKB O43614
Experiment: Measurement of orexin type 2 receptor agonist activity (Experimental Example 2-1, FLIPR TETRA, intracellular Ca2+)
Format: cell-based
Settings: CHO dhfr- cells expressing hOX2R, FLIPR TETRA, Fluo-4AM
Hi there, I'd appreciate the recorded pEC50 for every entry that follows.
Quick note: pEC50 means taking -log10 of the concentration in moles per liter.

Could you share which pEC50 value was measured for CCC(=O)N1CCC[C@H](NS(C)(=O)=O)[C@@H]1CO[C@H]1CC[C@@H](c2ccccc2)CC1 ?
8.64

Please look up its pEC50: CS(=O)(=O)N[C@H]1CCCN(C(=O)C2CC2)[C@H]1CO[C@H]1CC[C@@H](c2cc(F)ccc2F)CC1
8.82

Sample [2H]C([2H])([2H])OC(=O)N1CCC[C@H](NS(C)(=O)=O)[C@@H]1CO[C@H]1CC[C@@H](c2ccccc2)CC1 — what was its pEC50?
8.54

Tell me the measured pEC50 of CS(=O)(=O)N[C@H]1CCCN[C@H]1CO[C@H]1CC[C@@H](c2ccccc2C#N)CC1 (relative stereo) , please.
5.60

Quick one: pEC50 for CCNC(=O)N1CCC[C@H](NS(C)(=O)=O)[C@@H]1COC1CCC(c2ccccc2)C1 (relative stereo) ?
7.96

Request the reported pEC50 associated with CS(=O)(=O)N[C@H]1CCCN(C(=O)C2CC2(F)F)[C@H]1COC1CCN(c2ccccc2F)CC1 (relative stereo)
6.00

What value of pEC50 has been reported for the following compound? CS(=O)(=O)N[C@H]1CCCN(C(=O)C2CC2)[C@H]1CO[C@H]1CC[C@@H](c2cccc(F)c2F)CC1
8.77

Consider the compound shown here: COC(=O)N1CCC[C@H](NS(C)(=O)=O)[C@@H]1COC1CCC(c2ccccc2)C1 (relative stereo) What is its recorded pEC50?
6.31

Recorded pEC50 of CC(=O)N1CCC[C@H](NS(C)(=O)=O)[C@@H]1CO[C@H]1CC[C@@H](c2cccc(C#N)c2)CC1 (relative stereo) , please.
5.54

// lookup pEC50 for CC(=O)N1CCC[C@H](NS(C)(=O)=O)[C@@H]1CO[C@H]1CC[C@@H](c2ccccc2Cl)CC1 (relative stereo)
7.57

What value of pEC50 has been recorded for this entry: CCNC(=O)N1CCC[C@H](NS(C)(=O)=O)[C@@H]1CO[C@H]1CC[C@@H](c2ccn(C)n2)CC1 (relative stereo)
6.85

Consider the compound shown here: CC(OC(=O)N1CCC[C@H](NS(=O)(=O)N(C)C)[C@@H]1COC1CCN(c2ncccn2)CC1)C(F)(F)F (relative stereo) What is its recorded pEC50?
6.48

Could you share which pEC50 value was measured for CCNC(=O)N1CCC[C@H](NS(C)(=O)=O)[C@@H]1CO[C@H]1CC[C@@H](c2ccccc2C(F)(F)F)CC1 (relative stereo) [Example 249] ?
9.21

# pEC50 lookup, item CS(=O)(=O)N[C@H]1CCCN[C@H]1CO[C@H]1CC[C@@H](c2ccc(F)cc2F)CC1 (relative stereo)
5.40

Can you look up the measured pEC50 of CS(=O)(=O)N[C@H]1CCCN(C(=O)[C@H]2C[C@@H]2F)[C@H]1COC1CCN(c2ccccc2F)CC1 for me?
5.68

// lookup pEC50 for CCNC(=O)N1CCC[C@H](NS(C)(=O)=O)[C@@H]1CO[C@H]1CC[C@@H](C)CC1 (relative stereo)
7.41

Fill in: pEC50 of CS(=O)(=O)N[C@H]1CCCN(C(=O)OC2CC2)[C@H]1COC1CCN(c2ccccc2F)CC1 (relative stereo) is ___
5.48

Given CC(=O)N1CCC[C@H](NS(C)(=O)=O)[C@@H]1CO[C@H]1CC[C@@H](c2cccc(F)c2)CC1 , state its recorded pEC50.
8.00

I am curious: what pEC50 value has been reported for CS(=O)(=O)N[C@H]1CCCN(C(=O)C2CC2)[C@H]1COC1CCN(c2ccccc2Cl)CC1 (relative stereo) ?
5.70

Name the recorded pEC50 for COC(=O)N1CCC[C@H](NS(C)(=O)=O)[C@@H]1COC1CCN(c2ccccc2C(F)(F)F)CC1 (relative stereo) .
5.42

So what does the record say about pEC50 for CS(=O)(=O)N[C@H]1CCCN(C(=O)C2CCCCC2)[C@H]1COC1CCN(c2ncccn2)CC1 (relative stereo) ?
6.03

What measured pEC50 goes with CC(=O)N1CCC[C@H](NS(C)(=O)=O)[C@@H]1COC1CCC(F)(c2cccc(F)c2)CC1 (relative stereo) ?
6.68

Please look up its pEC50: CN(C)S(=O)(=O)N[C@H]1CCCN(C(=O)C2CC2)[C@H]1CO[C@H]1CC[C@@H](c2ccccc2)CC1
8.66

Find the recorded pEC50 belonging to COC(=O)N1CCC[C@H](NS(C)(=O)=O)[C@@H]1CO[C@H]1CC[C@@H](c2ccccc2C#N)CC1 (relative stereo) and report it.
5.64

Reported pEC50 for CC(=O)N(C)CC(=O)N1CCC[C@H](NS(C)(=O)=O)[C@@H]1CO[C@H]1CC[C@@H](c2ccccc2)CC1 (relative stereo) : what is it?
6.46

# get_value(readout='pEC50', item= CC(C)OC(=O)N1CCC[C@H](NS(C)(=O)=O)[C@@H]1CO[C@@H]1CCN(c2ncccn2)C[C@H]1F (relative stereo) )
7.89
